experiment: Pharmacokinetics, plasma concentration after intravenous and oral dose
Assay type: in vivo
experimental.setup: CD1, mouse, read-out: time of peak plasma concentration
readout.type: Tmax (h)
Numbers only, in h.

Enquiry: Please give the measured Tmax for this molecule: CN1CCN(Cc2ccc(NC(=O)c3cncc(C#Cc4cnc5cccnn45)c3)cc2C(F)(F)F)CC1
Return: 3

* * *

Test system: BaF3 cells expressing FLT3ITD
experiment: BaF3 proliferation, colorimetric WST-1 assay
Format: cell-based, murine
experimental.setup: BaF3 FLT3ITD; read-out: IC50, growth inhibition
readout.type: pIC50
One number for each entry, as −log10 of the molar value.

Enquiry: Please give the measured pIC50 for this compound: CN1CCN(Cc2ccc(NC(=O)c3cncc(C#Cc4cnc(N)c5ncccc45)c3)cc2C(F)(F)F)CC1
Return: 10.05

# credit: paper PMC11178545
